Could you please report measured microsomal CLint for the items listed next?
- PROTOCOL NOTES: Liver microsomal stability, rat
- Type: in vitro ADME
- ASSAY CONDITIONS: male, pH 7.4, liver microsomes
Hi! Could you send only the number? It should be in µL/min/mg, unit omitted.

In: Recorded microsomal CLint for "Cc1cccnc1CN1CCN(c2cc(CC(C)C)cc(F)c2-c2nn[nH]n2)C[C@@H]1C" , please?
Out: 28.3

In: Consider the compound CC(C)Cc1cc(F)c(-c2nn[nH]n2)c(N2CC(C)N(Cc3cccnn3)CC2C)c1 (centres unmarked) and give its measured microsomal CLint.
Out: 7

In: Recorded microsomal CLint for CCC1CN(c2cc(CC(C)C)cc(F)c2-c2nn[nH]n2)CCN1Cc1cccnn1 (centres unmarked) , please?
Out: 5

In: Requested field: microsomal CLint. Item: "COc1ccnc(CN2CCN(c3cc(CC(C)C)cc(F)c3-c3nn[nH]n3)C[C@@H]2C)c1"
Out: 22.3

In: Which microsomal CLint reading was recorded for the compound CC(C)Cc1cc(F)c(-c2nn[nH]n2)c(N2CC(C)N(Cc3cccnn3)C(C)C2)c1 (centres unmarked) ?
Out: 19

In: Reported microsomal CLint, compound "CC(C)Oc1ccc(-c2nn[nH]n2)c(N2CCN(Cc3nc4ccccc4s3)CC2)c1" : ____
Out: 1

In: Need microsomal CLint, item "Cc1cnc(CN2CCN(c3cc(CC(C)C)cc(F)c3-c3nn[nH]n3)C[C@@H]2C)s1"
Out: 24.1

In: Reported microsomal CLint for "CC(C)Cc1ccc(-c2nn[nH]n2)c(N2CCN(Cc3ccnn3C)CC2)c1" : what is it?
Out: 7

---

Please respond with reported pIC50 for every item in the list.
Note on pIC50: it is the negative log10 of concentration, concentration in mol/L.

In: // fetch human AT1R (Homo sapiens (Human), UniProt P30556) pIC50 for "COc1cc(F)c(-c2nn[nH]n2)c(N2CCN(Cc3nc4ccccc4s3)CC2)c1"
Out: 4.74

In: Provide value of pIC50 for this record tested with human AT1R (Homo sapiens (Human), UniProt P30556): "CCNc1ccc(C(=O)NS(=O)(=O)CC)c(N2CCN(Cc3nc4ccccc4s3)CC2)c1"
Sequence (P30556 whole entry): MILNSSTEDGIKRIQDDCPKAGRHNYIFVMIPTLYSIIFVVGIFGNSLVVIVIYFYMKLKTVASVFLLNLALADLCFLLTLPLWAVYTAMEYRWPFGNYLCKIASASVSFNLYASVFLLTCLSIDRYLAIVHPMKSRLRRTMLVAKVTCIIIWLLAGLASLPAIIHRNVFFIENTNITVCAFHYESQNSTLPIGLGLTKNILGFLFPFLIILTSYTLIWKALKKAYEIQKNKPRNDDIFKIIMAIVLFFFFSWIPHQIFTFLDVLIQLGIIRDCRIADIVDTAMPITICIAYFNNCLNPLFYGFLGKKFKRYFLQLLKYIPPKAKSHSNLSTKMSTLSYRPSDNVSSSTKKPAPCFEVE
Out: 4.46

In: Look up pIC50 with human AT1R (Homo sapiens (Human), UniProt P30556) for this compound: "c1ccc2sc(CN3CCN(c4cc(OCC5CC5)ccc4-c4nn[nH]n4)CC3)nc2c1"
Out: 4.51

In: Entry "c1ccc(N2CCN(Cc3nc4ccccc4s3)CC2)c(-c2nn[nH]n2)c1" , system human AT1R (Homo sapiens (Human), UniProt P30556): what pIC50 was measured?
Out: 4.30

In: Lab note: need pIC50 for "Cc1ccc2nc(CN3CCN(c4cc(CC(C)C)ccc4-c4nn[nH]n4)CC3)cc(=O)n2c1" on human AT1R (Homo sapiens (Human), UniProt P30556), anyone have it?
Out: 4.21

In: Item "CCOc1ccc(C(=O)NS(=O)(=O)CC)c(N2CCN(Cc3nc4ccccc4s3)CC2)c1" with human AT1R (Homo sapiens (Human), UniProt P30556) - pIC50?
Out: 4.87

In: API: value(readout=pIC50, system=human AT1R (Homo sapiens (Human), UniProt P30556)) for record "CC(C)Oc1cc(F)c(-c2nn[nH]n2)c(N2CCN(Cc3nc4ccccc4s3)CC2)c1"
Out: 4.38

In: Write down the reported pIC50 of "c1ccc2sc(CN3CCN(c4cc(N5CCCCC5)ccc4-c4nn[nH]n4)CC3)nc2c1" , test system: human AT1R (Homo sapiens (Human), UniProt P30556).
Out: 4.22

---

Kindly state IC50 for each of the entries shown.
- TEST TARGET: human AT2R fused to Cb23 (Homo sapiens, UniProt P50052)
- Sequence (P50052 whole entry, looked up, the tested form may be a part): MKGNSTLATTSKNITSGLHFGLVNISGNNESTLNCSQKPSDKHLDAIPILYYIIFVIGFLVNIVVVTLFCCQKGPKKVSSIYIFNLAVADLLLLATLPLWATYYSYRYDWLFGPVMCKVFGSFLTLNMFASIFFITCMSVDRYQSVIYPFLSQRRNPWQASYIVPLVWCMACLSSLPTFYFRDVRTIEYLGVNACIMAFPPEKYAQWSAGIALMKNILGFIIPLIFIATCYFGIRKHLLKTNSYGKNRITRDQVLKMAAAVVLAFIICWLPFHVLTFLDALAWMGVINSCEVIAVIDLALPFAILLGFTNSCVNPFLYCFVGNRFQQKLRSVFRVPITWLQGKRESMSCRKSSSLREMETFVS
- PROTOCOL NOTES: Radioligand binding assay, displacement of 125I-[Sar1, Ile8]-Angiotensin II, hAT2R Cb23
- ASSAY CONDITIONS: displacement of 125I-[Sar1, Ile8]-Angiotensin II, human AT2R fused to Cb23, HEK-293 cell membrane preparations; read-out: Binding affinity on hAT2R_Cb23 IC50
Use µM as the unit, but write only the number.

In: Need IC50 of CC(C)Oc1ccc(-c2nn[nH]n2)c(N2CCN(Cc3nc4ccccc4s3)CC2)c1 [Compound A-51] , thanks.
Out: 2.11

In: Dear colleague, I am looking for the recorded IC50 of the following compound: CC(C)Cc1cc(N2CCN(Cc3nc4ccccc4c(=O)[nH]3)CC2)c(-c2nn[nH]n2)cc1F [Compound A-153]
Out: 8.42

In: Given CCS(=O)(=O)NC(=O)c1ccccc1CN1CCN(c2nc3ccccc3s2)CC1 [Compound A-02] , state its recorded IC50.
Out: 6.21

In: Return reported IC50; argument: CC(C)Cc1cc(F)c(-c2nn[nH]n2)c(N2CC(C)N(Cc3cccnn3)C(C)C2)c1 (centres unmarked) [Compound A-184]
Out: 0.000893

In: Recorded IC50 of CC(C)Cc1cc(F)c(-c2nn[nH]n2)c(N2CCN(Cc3ncc(Cl)cc3F)CC2)c1 [Compound A-205] , please.
Out: 0.379

In: Could you tell me which IC50 is on file for Cc1csc2nc(CN3CCN(c4cc(CC(C)C)ccc4-c4nn[nH]n4)CC3)cc(=O)n12 [Compound A-75] ?
Out: 5.92

In: May I ask what IC50 has been recorded for Cc1cc(CN2CCN(c3cc(CC(C)C)ccc3-c3nn[nH]n3)CC2)no1 [Compound A-82] ?
Out: 3.2

In: What does the record list as IC50 for CC(C)Cc1ccc(-c2nn[nH]n2)c(N2CCN(Cc3ncon3)CC2)c1 [Compound A-108] ?
Out: 41.7

In: Which IC50 reading was recorded for the compound CCNc1cc(-c2nn[nH]n2)c(N2CCN(Cc3nc4ccccc4s3)CC2)cc1CC(C)C [Compound A-140] ?
Out: 0.736

In: So what does the record say about IC50 for Cc1cc(-c2nn[nH]n2)c(N2CCN(Cc3nc4ccccc4s3)CC2)cc1CC(C)C [Compound A-134] ?
Out: 9.66

In: Given the compound c1ccc2sc(CN3CCN(c4cc(NC5CCCC5)ccc4-c4nn[nH]n4)CC3)nc2c1 [Compound A-64] , what is its reported IC50?
Out: 1.56

In: Which IC50 value belongs to CC(C)Cc1ccc(-c2nn[nH]n2)c(N2CCN(Cc3nc4ccccc4n(C)c3=O)CC2)c1 [Compound A-79] ?
Out: 4.72

In: Dear colleague, I am looking for the recorded IC50 of the following compound: COc1ccc(CN2CCN(c3cc(CC(C)C)cc(F)c3-c3nn[nH]n3)CC2)nc1 [Compound A-194]
Out: 0.737

In: // lookup IC50 for CC(C)Cc1ccc(-c2nn[nH]n2)c(N2CCN(Cc3cccnn3)CC2)c1 [Compound A-90]
Out: 2.03

In: # query: IC50 of entry CC(C)Cc1cc(F)c(-c2nn[nH]n2)c(N2CCN(Cc3cc(Cl)ccn3)CC2)c1 [Compound A-191]
Out: 0.0531

In: Would you mind telling me what IC50 value was observed for CCS(=O)(=O)NC(=O)c1ccc(OC(C)C)cc1N1CCN(Cc2nc3ccccc3n2C)CC1 [Compound A-14] ?
Out: 4.82

In: Request the reported IC50 associated with CC(C)Cc1cc(N2CCN(Cc3nc4ccccc4s3)CC2)c(-c2nn[nH]n2)cc1N [Compound A-138]
Out: 4.71

In: Item CCc1nc2ccc(N(Cc3ccccc3Cl)C(=O)c3cccs3)cc2c(=O)n1CC1CCN(c2ccccc2-c2nn[nH]n2)CC1 [Compound A-248] has what recorded IC50?
Out: 0.048

In: Which measured IC50 value corresponds to CC(C)Cc1ccc(-c2nn[nH]n2)c(C2CCN(Cc3cccnn3)CC2)c1 [Compound A-234] ?
Out: 2.02

In: Any idea what IC50 was measured for COCCOc1ccc(-c2nn[nH]n2)c(N2CCN(Cc3nc4ccccc4s3)CC2)c1 [Compound A-56] ?
Out: 61.7

In: Looking for the measured IC50 of CC(C)Cc1cc(F)c(-c2nn[nH]n2)c(N2CCN(Cc3cc(Cl)c(F)cn3)CC2)c1 [Compound A-210] , can you help?
Out: 2.01

In: Fill in the blank: the reported IC50 of c1ccc2sc(CN3CCN(c4cc(OCC5COC5)ccc4-c4nn[nH]n4)CC3)nc2c1 [Compound A-58] is ____.
Out: 17.2

In: What IC50 value was documented for this compound, c1ccc2sc(CN3CCN(c4nc(C5CC5)cnc4-c4nn[nH]n4)CC3)nc2c1 [Compound A-146] ?
Out: 9.74

In: If you can, please state the reported IC50 value of CC(C)Cc1ccc(-c2nn[nH]n2)c(N2CCN(Cc3cnccn3)CC2)c1 [Compound A-93] .
Out: 6.98

In: IC50 for Cc1cnc(CN2CCN(c3cc(CC(C)C)cc(F)c3-c3nn[nH]n3)CC2)s1 [Compound A-220] ?
Out: 0.0807

In: Entry c1ccc2sc(CN3CCN(c4cc(C5CC5)cc(C5CC5)c4-c4nn[nH]n4)CC3)nc2c1 [Compound A-129] : reported IC50 = ?
Out: 0.158

In: Please look up its IC50: O=c1[nH]c(CN2CCN(c3cc(C(F)(F)F)ccc3-c3nn[nH]n3)CC2)nc2ccccc12 [Compound A-29]
Out: 42.4

In: # query: IC50 of entry CC(C)Cc1ccc(-c2nn[nH]n2)c(N2CCN(Cc3nc4ccccc4c(=O)n3C)CC2)c1 [Compound A-78]
Out: 1.5

In: For CCS(=O)(=O)NC(=O)c1ccc(OC(C)C)cc1N1CCN(Cc2nc3ccccc3s2)CC1 [Compound A-40] , what is its reported IC50?
Out: 5.87

In: Any idea what its IC50 is? The compound is Cc1cnc(CN2CCN(c3cc(CC(C)C)cc(F)c3-c3nn[nH]n3)C[C@@H]2C)s1 [Compound A-223]
Out: 0.006

In: Returns the measured IC50 for the input compound. Input: c1ccc2sc(CN3CCN(c4nc(C5CC5)ccc4-c4nn[nH]n4)CC3)nc2c1 [Compound A-145]
Out: 8.22

In: # query: IC50 of entry CC(C)Cc1cc(N2CCN(Cc3cccnn3)CC2)c(-c2nn[nH]n2)cc1F [Compound A-163]
Out: 3.32
